Before we begin, note that these Ki values for Apoptosis regulator Bcl-2 (Homo sapiens) originate from several publications.
API: value field is a number in nM; no unit string.

Cc1cccc(/C=C/C(=O)Nc2ccc(C(=O)NS(=O)(=O)c3ccc(NCCSc4ccccc4)c([N+](=O)[O-])c3)cc2)c1 : 1700
N#CC1=C(NCCC(=O)NCCOCCO)c2ccc(Sc3ccc(Br)cc3)c3cccc(c23)C1=O : 810

Moving on to the next compound.
The compound listed as CCOC(=O)C1=C(N)Oc2ccc(-c3ccccc3)cc2C1C(C#N)C(=O)OCC (configuration not stated) shows Ki equal to 112000

----------
Before we begin, note that these pKi values for UniProt P10415 originate from several publications.
In simple prose, pKi is minus the logarithm base ten of a concentration in moles per litre.

CC(C)COc1ccc(C(=O)Nc2c(C(=O)O)nn(-c3ccc(Oc4ccccc4)cc3)c2-c2ccc(OC(C)C)cc2)cc1 : 5.85
O=C(Cc1ccccc1)Nc1ccc(C(=O)NS(=O)(=O)c2ccc(NCCSc3ccccc3)c([N+](=O)[O-])c2)cc1 : 5.40
Cc1cc2c(c(O)c1-c1c(C)cc3c(c1O)/C(=C/NCC(=O)O)C(=O)C(O)=C3C(C)C)/C(=C/NCC(=O)O)C(=O)C(O)=C2C(C)C : 6.65

Record for O=C1c2ccccc2C(=O)c2c1cc(O)c(O)c2O under target or system UniProt P10415: pKi reported as 6.23

----------
Before we begin, note that these pKi values for Apoptosis regulator Bcl-2 (Homo sapiens) originate from several publications.
In simple prose, pKi is minus the logarithm base ten of a concentration in moles per litre.

A selection of reference data follows.
COC(=O)CN/C=C1\C(=O)C(O)=C(C(C)C)c2cc(C)c(-c3c(C)cc4c(c3O)/C(=C/NCC(=O)OC)C(=O)C(O)=C4C(C)C)c(O)c21 : 8.30
CC(C)c1ccccc1Cc1cc(C(=O)Nc2ccc(S(=O)(=O)c3ccccc3C(C)(C)C)cc2)c(O)c(O)c1O : 6.54
COc1cc(CCCN2CCOCC2)ccc1-c1ccc(C(=O)NS(=O)(=O)c2ccc(N[C@H](CCCCN(C)C)CSc3ccccc3)c([N+](=O)[O-])c2)cc1 : 7.23
O=C(O)c1cc2ccccc2n1S(=O)(=O)c1ccc(OCc2cccc(Cl)c2)cc1 : 5.44

Moving on to the next molecule.
Record for O=C(Nc1nc2ccccc2s1)c1cccc2c1CN(c1nc(C(=O)O)c(CCOc3cccc(-n4ncc5cncnc54)c3)s1)CC2 under target or system Apoptosis regulator Bcl-2 (Homo sapiens): pKi reported as 7.00

----------
Before we begin, note that these Ki values for Apoptosis regulator Bcl-2 (Homo sapiens, UniProt P10415) originate from several publications.
Label Satisfied when Ki is strictly below 2000 nM; otherwise label Not satisfied.

// below: answered compounds
CC1(C)CCC(CN2CCN(c3ccc(C(=O)NS(=O)(=O)c4ccc(N[C@H](CCN5CCOCC5)CSc5ccccc5)c(S(=O)(=O)C(F)(F)Cl)c4)cc3)CC2)=C(c2ccc(Cl)cc2)C1 : Satisfied
O=C(O)c1[nH]c2cc(Cl)ccc2c1CCCOc1cccc2ccccc12 : Satisfied
O=Cc1ccc(-c2ccc(C[C@@H]3NC(=O)N([C@@H](Cc4ccccc4)C(=O)NS(=O)(=O)c4ccc(Cl)c([N+](=O)[O-])c4)C3=O)cc2)cc1 : Not satisfied
O=C(O)c1ccc(COc2ccc(/C=C3\SC(=S)N(c4ccccc4)C3=O)cc2)cc1 : Not satisfied
O=C(NS(=O)(=O)c1ccccc1)[C@H](Cc1c[nH]c2ccccc12)N1C(=O)/C(=C/c2ccc(-c3ccc(Cl)cc3)cc2)SC1=S : Satisfied
CN(C)CC[C@H](CSc1ccccc1)Nc1ccc(S(=O)(=O)Nc2ccc(NCCNc3cccc(-c4c(-c5ccc(Cl)cc5)cn(CC[C@H](O)CO)c4C(=O)NCCCN4CCN(C)CC4)c3)cc2)cc1[N+](=O)[O-] : Satisfied
Cc1ccccc1CN1CCN(c2ccc(C(=O)NS(=O)(=O)c3ccc(N[C@H](CCN(C)C)CSc4ccccc4)c([N+](=O)[O-])c3)cc2)CC1 : Satisfied
Cc1cccc(-c2ccc(C[C@@H]3NC(=O)N([C@@H](Cc4ccccc4)C(=O)NS(=O)(=O)c4ccccc4)C3=O)cc2)c1 : Not satisfied
CCc1sc2ncnc(N[C@@H](C)C(=O)O)c2c1-c1ccccc1 : Not satisfied
O=C(/C=C/c1ccccc1C(F)(F)F)Nc1ccc(C(=O)NS(=O)(=O)c2ccc(NCCSc3ccccc3)c([N+](=O)[O-])c2)cc1 : Satisfied

Regarding COC1(Cc2ccccc2)CCN(c2ccc(C(=O)NS(=O)(=O)c3ccc(N[C@H](CCN(C)C)CSc4ccccc4)c([N+](=O)[O-])c3)cc2)CC1 , kindly confirm whether its Ki is beneath 2000 nM.
Satisfied

Regarding C=C(c1ccc(C(=O)NS(=O)(=O)c2ccc(NCCSc3ccccc3)c([N+](=O)[O-])c2)cc1)c1cc2c(cc1C)C(C)(C)CCC2(C)C , kindly confirm whether its Ki is beneath 2000 nM.
Not satisfied

Regarding O=C(NS(=O)(=O)c1ccc(Cl)c([N+](=O)[O-])c1)[C@H](Cc1ccccc1)N1C(=O)/C(=C/c2ccc(-c3ccc(C(F)(F)F)cc3)cc2)SC1=S , kindly confirm whether its Ki is beneath 2000 nM.
Satisfied

----------
Before we begin, note that these Ki values for Apoptosis regulator Bcl-2 (Homo sapiens) originate from several publications.
API: value field is a number in nM; no unit string.

A selection of reference data follows.
O=C(NS(=O)(=O)c1ccc(Cl)c([N+](=O)[O-])c1)[C@H](Cc1c[nH]c2ccccc12)N1C(=O)/C(=C/c2ccc(-c3ccc(Cl)cc3)cc2)SC1=S : 5600
O=C(NCCNS(=O)(=O)c1sccc1-c1ccccc1Oc1ccc(O)c(O)c1)Nc1cc(Cl)cc(Cl)c1 : 4600
COCCNC(=O)[C@H]1[C@H](CO)[C@H]2Cn3c(cccc3=O)[C@@H]1N2c1nc(-c2ccc(Cl)cc2)c(-c2ccccc2)s1 : 14000
CC(C)c1cc(C(=O)Nc2ccccc2)c(O)c(O)c1O : 24100

Record for Cc1cc(OCCCc2c3n(c4c(-c5c(C)nn(C)c5C)c(Cl)ccc24)[C@H](C)CN(c2cccc(C(=O)O)c2)C3=O)cc(C)c1Cl under target or system Apoptosis regulator Bcl-2 (Homo sapiens): Ki reported as 990

Record for Cc1cc(OCCCc2c3n(c4c(-c5c(C)nn(C)c5C)c(Cl)ccc24)CCCN(c2cn(C)c4ccc(C(=O)O)cc24)C3=O)cc(C)c1Cl under target or system Apoptosis regulator Bcl-2 (Homo sapiens): Ki reported as 560

Record for Cc1cc(OCCCc2c3n(c4c(-c5c(C)nn(C)c5C)c(Cl)ccc24)CCCN(c2cc(C(=O)O)cc4ccn(C)c24)C3=O)cc(C)c1Cl under target or system Apoptosis regulator Bcl-2 (Homo sapiens): Ki reported as 520

Record for CCc1sc2nc(S(C)(=O)=O)nc(N[C@H](C)C(=O)O)c2c1-c1cccc(Oc2ccc(F)cc2)c1 under target or system Apoptosis regulator Bcl-2 (Homo sapiens): Ki reported as 51000

----------
Before we begin, note that these Ki values for UniProtKB P10415 originate from several publications.
API: value field is a number in µM; no unit string.

COc1cc(CCCN2CCOCC2)ccc1-c1ccc(C(=O)NS(=O)(=O)c2ccc(N[C@H](CCCCN)CSc3ccccc3)c([N+](=O)[O-])c2)cc1 : 0.07

Record for CCc1sc2ncnc(N[C@@H](C)C(=O)O)c2c1CC under target or system UniProtKB P10415: Ki reported as 74

Record for Cc1cc(OCCCn2ccc3cc(OCc4ccccc4C(=O)O)ccc32)cc(C)c1Cl under target or system UniProtKB P10415: Ki reported as 0.76

Record for CN(C)c1cccc2c(S(=O)(=O)Nc3cc(SCC(=O)O)c(O)c4ccccc34)cccc12 under target or system UniProtKB P10415: Ki reported as 2.2

----------
Before we begin, note that these Ki values for Apoptosis regulator Bcl-2 (Homo sapiens, UniProt P10415) originate from several publications.
Label Satisfied when Ki is strictly below 600 nM; otherwise label Not satisfied.

// below: answered compounds
CC(C)(C)c1ccc(C(O)(CCN2CCCC2)c2ccc(Cl)c(CCOc3ccc(-c4ccc(C(=O)O)cc4)cc3)c2)cc1 (centres undefined) : Satisfied
Cc1cc(Oc2ccc(Cn3nc4ccc(Cl)cc4c3C(=O)NS(=O)(=O)c3ccc(NCCc4ccco4)c([N+](=O)[O-])c3)cc2)cc(C)c1Cl : Not satisfied
Cc1cc(OCCCc2c3n(c4c(-c5c(C)nn(C)c5C)c(Cl)ccc24)[C@H](C)CN(c2cc(C(=O)O)c4ccn(C)c4c2)C3=O)cc(C)c1Cl : Not satisfied

Regarding CN(C)CC[C@H](CSc1ccccc1)Nc1ccc(S(=O)(=O)NC(=O)c2ccc(N3CCN(Cc4ccccc4-c4cccc(Cl)c4)CC3)cc2)cc1[N+](=O)[O-] , kindly confirm whether its Ki is beneath 600 nM.
Satisfied

Regarding O=C1c2ccccc2C(=O)c2c1ccc(O)c2O , kindly confirm whether its Ki is beneath 600 nM.
Not satisfied

Regarding O=C(Nc1ccccc1)c1cc(Cc2ccccc2)c(O)c(O)c1O , kindly confirm whether its Ki is beneath 600 nM.
Not satisfied

Regarding CC(C)(C)c1ccc(OCCCn2c(C(=O)N3CCCCC3)cc3ccc(OCc4ccccc4C(=O)O)cc32)cc1 , kindly confirm whether its Ki is beneath 600 nM.
Satisfied

Regarding Cc1cc(OCCCn2c(C(N)=O)cc3ccc(OCc4ccccc4C(=O)O)cc32)cc(C)c1Cl , kindly confirm whether its Ki is beneath 600 nM.
Not satisfied

Regarding O=C(N[C@@H](Cc1ccccc1)C(=O)NS(=O)(=O)c1ccc(Cl)c([N+](=O)[O-])c1)c1cn(Cc2ccc(-c3ccccc3)cc2)c2ccccc12 , kindly confirm whether its Ki is beneath 600 nM.
Not satisfied

Regarding CN(C)CC[C@H](CSc1ccccc1)Nc1ccc(S(=O)(=O)Nc2ccc(N3CCN(c4cccc(-c5c(-c6ccc(Cl)cc6)cn(C)c5C(=O)O)c4)CC3)cc2)cc1[N+](=O)[O-] , kindly confirm whether its Ki is beneath 600 nM.
Satisfied

Regarding COc1ccc2c(c1)c(CC(=O)NS(=O)(=O)c1ccc(NCc3ccccc3)c([N+](=O)[O-])c1)c(C)n2-c1ccc(-c2ccccc2)cc1 , kindly confirm whether its Ki is beneath 600 nM.
Not satisfied

Regarding O=C(NS(=O)(=O)c1ccc(N[C@H](CCN2CCOCC2)CSc2ccccc2)c([N+](=O)[O-])c1)c1ccc(N2CCN(Cc3ccccc3-c3ccc(Cl)cc3)CC2)cc1 , kindly confirm whether its Ki is beneath 600 nM.
Satisfied

Regarding CSCC[C@H](NC(C)=O)C(=O)Nc1ccc(C(=O)NS(=O)(=O)c2ccc(NCCSc3ccccc3)c([N+](=O)[O-])c2)cc1 , kindly confirm whether its Ki is beneath 600 nM.
Not satisfied
